Source listed as PubChem BioAssay (NCI).

test system: SR leukemia; assay: NCI tumour cell line growth inhibition, 48 h
Quantity: TGI (µM)
A number alone suffices; assume µM.

Recorded results for 2 molecules are shown here.
[[record]]
molecule = "C=C1CC(Cn2cc(C)c(=O)[nH]c2=O)(c2ccc(Cl)cc2)OC1=O (configuration not stated)"
target_or_system = "SR leukemia"
uom = "µM"
readout_value = 8.97

[[record]]
molecule = "CC/C(=C(\\c1ccc(Cl)cc1)c1ccc(OCCN2CCCCC2)cc1)c1ccc(O)cc1"
target_or_system = "SR leukemia"
uom = "µM"
readout_value = 4.51


Test system SR leukemia; read-out TGI; what value for `C/C(=N/NC(=S)N1CCCCC1)c1cccc(/C(C)=N\NC(=S)N2CCCCC2)n1` ? 6.58

Test system SR leukemia; read-out TGI; what value for `CC[C@H](Nc1cc(C)nc(N)n1)c1nc2cccc(NCc3ccc(C(=O)NO)cc3)c2c(=O)n1-c1ccccc1` ? 13

Test system SR leukemia; read-out TGI; what value for `COC(=O)c1ccc2[nH]c(O)c(C(=Nc3ccc(N(C)C(=O)CN4CCN(C)CC4)cc3)c3ccc(OC)cc3)c2c1` ? 4.92

----------
test system: RPMI-8226 leukemia; assay: NCI tumour cell line growth inhibition, 48 h
Quantity: TGI (µM)
A number alone suffices; assume µM.

Recorded results for 5 compounds are shown here.
[[record]]
compound = "Cc1ccc(-c2c(C#N)c(-c3ccccc3)c(C#N)c(=O)n2NS(=O)(=O)c2ccc(C)cc2)cc1"
readout_value = 8.79

[[record]]
compound = "COC(=O)c1ccc2[nH]c(O)c(C(=Nc3ccc(N(C)C(=O)CN4CCN(C)CC4)cc3)c3ccc(OC)cc3)c2c1"
readout_value = 4.4

[[record]]
compound = "O=C(/C=C/c1cccc(O)c1)c1cccc(-n2cc(-c3ccc(Cl)cc3)[nH]c2=O)c1"
readout_value = 4.64

[[record]]
compound = "COc1cc(C(=O)/C=C/c2c(C)n([O-])c3ccc(C(F)(F)F)cc3[n+]2=O)cc(OC)c1OC"
readout_value = 48.9

[[record]]
compound = "COC(=O)C(=Cc1ccccc1[N+](=O)[O-])C(=O)OC"
readout_value = 3.63


What does the record list as TGI for `CCOC(=O)c1ccc2c(c1)c1c(C)c3cnccc3c(C)c1n2C` ? 1.8

What does the record list as TGI for COc1ccc2c(c1)SC1=NNC(Cl)C(=O)N12 (stereo not given) ? 54.1

What does the record list as TGI for COc1ccc(C2C(C#N)=C(N)Oc3c2sc2c(C)cccc32)cc1 (stereo not given) ? 5.53

What does the record list as TGI for `CN(C)CCCNc1c2c(nc3ccc(Cl)cc13)CCCC2` ? 28.7

What does the record list as TGI for `CCCCCCC[CH2][Sn]([Cl])([Cl])[CH2]CCCCCCC` ? 12.6

What does the record list as TGI for `CCN(CC)S(=O)(=O)c1ccc2nc(NC(=O)OC)[nH]c2c1` ? 47.1

----------
Examples of compounds with documented TGI follow.
system: PC-3 prostate; assay: NCI tumour cell line growth inhibition, 48 h

[[record]]
compound = "CCCCCc1cccc(=O)o1"
readout_value = "> 100 µM"

[[record]]
compound = "COc1ccc(/C(COc2ccc3c(c2)oc(=O)c2cc(OC)ccc23)=N/O)cc1"
readout_value = "> 100 µM"

[[record]]
compound = "CC(C)Sc1nncc(/C(N)=N/O)n1"
readout_value = "> 100 µM"

[[record]]
compound = "CC(=O)c1ccc(NC(=O)/C(CC(=O)/C=C/c2ccccc2)=N/NC(N)=S)cc1"
readout_value = "> 100 µM"

[[record]]
compound = "O=S(CCc1ccccc1)Nc1ccccc1 (configuration not stated)"
readout_value = "> 100 µM"

[[record]]
compound = "CCCCCC(=O)n1[nH]c(=O)n(-c2ccc(OC)cc2)c1=O"
readout_value = "> 100 µM"

[[record]]
compound = "O=C(c1ccccc1)c1ccc2nc(-c3c(Cl)c(Cl)c(Cl)c(Cl)c3C(=O)N/N=C\\C=C\\c3ccccc3)[nH]c2c1"
readout_value = "> 100 µM"

[[record]]
compound = "CCOC(=O)Cc1cc(=O)oc2cc(O)ccc12"
readout_value = "> 100 µM"

[[record]]
compound = "O=C(N/N=C\\c1c(O)ccc2ccccc12)c1ccncc1"
readout_value = "> 25 µM"

[[record]]
compound = "CC(C1CCCC1=O)C1CCCC1=O (configuration not stated)"
readout_value = "> 100 µM"


What does the record list as TGI for `Cc1nc2ccccn2c1NC(=O)NNC(=S)Nc1ccc(Cl)cc1` ? > 100 µM

What does the record list as TGI for CC1OC2=N[C@@H]1C(=O)N[C@@H](Cc1ccccc1)C1=N[C@H](C(=O)N[C@@H](Cc3ccccc3)C3=N[C@H](C(=O)N[C@H]2Cc2ccccc2)C(C)O3)C(C)O1 (some centres not stated) ? 73.2 µM

----------
test system: LOX IMVI melanoma
Where a SMILES comes first, the peptide text is derived from it. [ ]: non-standard residue; d: D form. The star is where a group is joined. Nle = CCCC[C@H](N)C(=O)O; Cbz = O=C(OCc1ccccc1)*
Can you answer with just one of these options? active, inactive

In this assay, the call recorded for `NC1CCCCC1N.O=NN1CCCCCC1(P(=O)([O-])[O-])P(=O)([O-])[O-].[Na+].[Pt+2]` was what? inactive

In this assay, the call recorded for `CC[C@H](Nc1cc(C)nc(N)n1)c1nc2cccc(NCc3ccc(C(=O)NO)cc3)c2c(=O)n1-c1ccccc1` was what? inactive

In this assay, the call recorded for CCCC[C@@H](C=O)NC(=O)[C@H](CC(C)C)NC(=O)[C@H](CC(C)C)NC(=O)OCc1ccccc1 (Cbz-Leu-Leu-[Nle]-aldehyde) was what? active

In this assay, the call recorded for `O=C1OC(c2cccc(C(F)(F)F)c2)(c2cccc(C(F)(F)F)c2)c2ccc3ccccc3c21` was what? inactive

In this assay, the call recorded for `Nc1nonc1-c1nc2cnccc2n1C1CCCCC1` was what? inactive

In this assay, the call recorded for `CC#CC#Cc1cccc(=O)o1` was what? inactive

----------
test system: NCI/ADR-RES ovarian; experiment: NCI tumour cell line growth inhibition, 48 h
Quantity: TGI

Recorded results for 5 compounds are shown here.
[[record]]
compound = "Cc1cn(C2CC(Br)C(COC(c3ccccc3)(c3ccccc3)c3ccccc3)O2)c(=O)[nH]c1=O (stereo not given)"
quantity = "TGI"
readout_value = "28.9 µM"

[[record]]
compound = "O=C(O)CN1CCN(CC(=O)O)CCN(CC(=O)O)CC1"
quantity = "TGI"
readout_value = "> 30.9 µM"

[[record]]
compound = "CCOC(=O)C(NC(=O)c1ccccc1)(Nc1cc(C)on1)C(F)(F)F (stereo not given)"
quantity = "TGI"
readout_value = "> 100 µM"

[[record]]
compound = "CN(C)CCCNc1c2c(nc3ccc(Cl)cc13)CCCC2"
quantity = "TGI"
readout_value = "45 µM"

[[record]]
compound = "CC(C)(C)OCC1NC(=O)[C@@H]2Cc3c([nH]c4ccccc34)C(C3CCCCC3)N2C1=O (stereo not given in full)"
quantity = "TGI"
readout_value = "57.5 µM"


What does the record list as TGI for `COc1cc(Nc2nc3c(N)cc(C(F)(F)F)cc3nc2-c2ccccc2)cc(OC)c1OC` ? > 100 µM

What does the record list as TGI for `CC(=O)c1ccc(NC(=O)/C(CC(=O)/C=C/c2ccccc2)=N/NC(N)=S)cc1` ? > 100 µM

----------
test system: HT29 colon; assay: NCI tumour cell line growth inhibition, 48 h
Quantity: TGI (µM)
A number alone suffices; assume µM.

[[record]]
compound = "COc1ccc2c(c1)SC1=NNC(Cl)C(=O)N12 (stereo not given)"
target_or_system = "HT29 colon"
readout_value = 35.1

[[record]]
compound = "C=CCSSC1N=CNc2nc[nH]c21 (stereo not given)"
target_or_system = "HT29 colon"
readout_value = 36.5

[[record]]
compound = "CCCCCCC[CH2][Sn]([Cl])([Cl])[CH2]CCCCCCC"
target_or_system = "HT29 colon"
readout_value = 20

[[record]]
compound = "O=C1Nc2ccc(Br)cc2C1=Nc1ccc2c(c1)OCO2"
target_or_system = "HT29 colon"
readout_value = 39.1

[[record]]
compound = "COC(=O)/C=C1/SC(=Nc2ccc(C(F)(F)F)cc2)N(CCc2c[nH]c3ccc(O)cc23)C1=O"
target_or_system = "HT29 colon"
readout_value = 3.43

[[record]]
compound = "COc1ccccc1N1CCN(CC(O)COc2c(Br)c(Br)c(Br)c3c2OC(C)(C)C3)CC1 (stereo not given)"
target_or_system = "HT29 colon"
readout_value = 14

[[record]]
compound = "Clc1nc(Cl)c2ncn(CC#CCn3cnc4c(Cl)nc(Cl)nc43)c2n1"
target_or_system = "HT29 colon"
readout_value = 3.69

[[record]]
compound = "C/C(Cc1ccc(Cl)cc1)=C(\\c1ccc(OCCN2CCCCCC2)cc1)c1ccc(OC(=O)c2ccccc2)cc1"
target_or_system = "HT29 colon"
readout_value = 5.75


What does the record list as TGI for CC1OC2=N[C@@H]1C(=O)N[C@@H](Cc1ccccc1)C1=N[C@H](C(=O)N[C@@H](Cc3ccccc3)C3=N[C@H](C(=O)N[C@H]2Cc2ccccc2)C(C)O3)C(C)O1 (stereo not given in full) ? 52.5

What does the record list as TGI for Brc1ccc2c(C3CN[C@@H](c4c[nH]c5cc(Br)ccc45)CN3)c[nH]c2c1 (stereo not given in full) ? 9.52

What does the record list as TGI for C=C1C(=O)c2sccc2C(c2ccc(OC)c(OC)c2)C1COC(C)=O (stereo not given) ? 4.01

What does the record list as TGI for `CC/C(=C(\c1ccc(Cl)cc1)c1ccc(OCCN2CCCCC2)cc1)c1ccc(O)cc1` ? 5.09

What does the record list as TGI for `C=CC(=O)N1CC2(CCC(n3nc(-c4ccc(Oc5ccccc5)cc4)c4c(N)ncnc43)CC2)C1` ? 1.34
